- Test system: LC-2-ad
- Experiment summary: relative viability (nuclei count vs DMSO), 5 days (fraction); higher = more cells survive
- Condition details: first compound 2.53 µM
Items are presented alongside their recorded relative viability.
// return just the number, without any unit appended

Indicate the recorded relative viability value for this molecule: Oc1nc(-c2ccc(C(F)(F)F)cc2)nc2c1CSCC2 [XAV939] + CS(=O)(=O)CCNCc1ccc(-c2ccc3ncnc(Nc4ccc(OCc5cccc(F)c5)c(Cl)c4)c3c2)o1 [Lapatinib] (partner 2 µM)
0.862

Indicate the recorded relative viability value for this molecule: C=C1C(=O)O[C@@H](CCCCCCCC)[C@@H]1C(=O)O [C-75] + N=C(N)NC(=N)NCCc1ccccc1 [Phenformin] (partner 250 µM)
0.483

Indicate the recorded relative viability value for this molecule: Oc1nc(-c2ccc(C(F)(F)F)cc2)nc2c1CSCC2 [XAV939] + Nc1ncn([C@H]2C[C@H](O)[C@@H](CO)O2)c(=O)n1 [Decitabine] (partner 2 µM)
0.733

Indicate the recorded relative viability value for this molecule: C=C1C(=O)O[C@@H](CCCCCCCC)[C@@H]1C(=O)O [C-75] + COc1cc2c(Oc3ccc(NC(=O)C4(C(=O)Nc5ccc(F)cc5)CC4)cc3F)ccnc2cc1OCCCN1CCOCC1 [Foretinib] (partner 0.25 µM)
0.724

Indicate the recorded relative viability value for this molecule: C=C1C(=O)O[C@@H](CCCCCCCC)[C@@H]1C(=O)O [C-75] + CC(=O)c1c(C)c2cnc(Nc3ccc(N4CCNCC4)cn3)nc2n(C2CCCC2)c1=O [Palbociclib] (partner 0.5 µM)
0.381

Indicate the recorded relative viability value for this molecule: Oc1nc(-c2ccc(C(F)(F)F)cc2)nc2c1CSCC2 [XAV939] + Cc1cc(Nc2cc(N3CCN(C)CC3)nc(Sc3ccc(NC(=O)C4CC4)cc3)n2)n[nH]1 [Tozasertib] (partner 0.1 µM)
0.381

----------
- Tested on: EMC-BAC-2
- Experiment summary: relative viability (nuclei count vs DMSO), 5 days (fraction); higher = more cells survive
- Condition details: first compound 0.01 µM
For each record, check the reported relative viability: if it is below 0.6 write met, else write not met.

{"Molecule": "NC(=O)Nc1cc(-c2cccc(F)c2)sc1C(=O)N[C@H]1CCCNC1 [AZD7762] + CC(=O)Nc1cccc(-n2c(=O)n(C3CC3)c(=O)c3c(Nc4ccc(I)cc4F)n(C)c(=O)c(C)c32)c1 [Trametinib] (partner 0.02 µM)", "Category label": "not met"}
{"Molecule": "NC(=O)Nc1cc(-c2cccc(F)c2)sc1C(=O)N[C@H]1CCCNC1 [AZD7762] + C[C@@H](Oc1cc(-c2cnn(C3CCNCC3)c2)cnc1N)c1c(Cl)ccc(F)c1Cl [Crizotinib] (partner 1 µM)", "Category label": "not met"}
{"Molecule": "NC(=O)Nc1cc(-c2cccc(F)c2)sc1C(=O)N[C@H]1CCCNC1 [AZD7762] + Cc1nc(Nc2ncc(C(=O)Nc3c(C)cccc3Cl)s2)cc(N2CCN(CCO)CC2)n1 [Dasatinib] (partner 0.075 µM)", "Category label": "met"}
{"Molecule": "NC(=O)Nc1cc(-c2cccc(F)c2)sc1C(=O)N[C@H]1CCCNC1 [AZD7762] + CC(=O)c1c(C)c2cnc(Nc3ccc(N4CCNCC4)cn3)nc2n(C2CCCC2)c1=O [Palbociclib] (partner 0.5 µM)", "Category label": "met"}

Determine whether this molecule shows relative viability lower than 0.6 (ties excluded): NC(=O)Nc1cc(-c2cccc(F)c2)sc1C(=O)N[C@H]1CCCNC1 [AZD7762] + Nc1nc2[nH]cc(CCc3ccc(C(=O)N[C@@H](CCC(=O)O)C(=O)O)cc3)c2c(=O)[nH]1 [Pemetrexed] (partner 0.2 µM)
met

----------
- Tested on: NCI-H838
- Experiment summary: relative viability (nuclei count vs DMSO), 5 days (fraction); higher = more cells survive
- Condition details: first compound 0.8 µM
For each record, check the reported relative viability: if it is below 0.5 write fulfilled, else write not fulfilled.

{"Compound": "C=C1C(=O)O[C@@H](CCCCCCCC)[C@@H]1C(=O)O [C-75] + COc1cccc2cc(-c3nc([C@H]4CC[C@H](C(=O)O)CC4)n4ncnc(N)c34)[nH]c12 [OSI-027] (partner 0.5 µM)", "Category label": "fulfilled"}
{"Compound": "C=C1C(=O)O[C@@H](CCCCCCCC)[C@@H]1C(=O)O [C-75] + C[C@]1(O)C[C@@H](c2nc(-c3ccc4ccc(-c5ccccc5)nc4c3)c3c(N)nccn32)C1 [Linsitinib] (partner 1 µM)", "Category label": "not fulfilled"}
{"Compound": "C=C1C(=O)O[C@@H](CCCCCCCC)[C@@H]1C(=O)O [C-75] + CC(=O)Nc1cccc(-n2c(=O)n(C3CC3)c(=O)c3c(Nc4ccc(I)cc4F)n(C)c(=O)c(C)c32)c1 [Trametinib] (partner 0.02 µM)", "Category label": "fulfilled"}
{"Compound": "Oc1nc(-c2ccc(C(F)(F)F)cc2)nc2c1CSCC2 [XAV939] + Cc1nc(NC(=O)N2CCC[C@H]2C(N)=O)sc1-c1ccnc(C(C)(C)C(F)(F)F)c1 [Alpelisib] (partner 2 µM)", "Category label": "not fulfilled"}
{"Compound": "Oc1nc(-c2ccc(C(F)(F)F)cc2)nc2c1CSCC2 [XAV939] + CCNC(=O)c1noc(-c2cc(C(C)C)c(O)cc2O)c1-c1ccc(CN2CCOCC2)cc1 [Luminespib] (partner 0.01 µM)", "Category label": "fulfilled"}

Let's switch to this compound now.
Determine whether this compound shows relative viability lower than 0.5 (ties excluded): C=C1C(=O)O[C@@H](CCCCCCCC)[C@@H]1C(=O)O [C-75] + CS(=O)(=O)CCNCc1ccc(-c2ccc3ncnc(Nc4ccc(OCc5cccc(F)c5)c(Cl)c4)c3c2)o1 [Lapatinib] (partner 2 µM)
not fulfilled

----------
Items are presented alongside their recorded relative viability.
- Tested on: NCI-H1975
- Experiment summary: relative viability (nuclei count vs DMSO), 5 days (fraction); higher = more cells survive
- Condition details: first compound 2.53 µM

# count of solved cases: 3
{"Molecule": "C=C1C(=O)O[C@@H](CCCCCCCC)[C@@H]1C(=O)O [C-75] + O=C(c1cc(Cc2n[nH]c(=O)c3ccccc23)ccc1F)N1CCN(C(=O)C2CC2)CC1 [Olaparib] (partner 8 µM)", "Assay system": "NCI-H1975", "relative viability": 0.77}
{"Molecule": "C=C1C(=O)O[C@@H](CCCCCCCC)[C@@H]1C(=O)O [C-75] + CC(=O)Nc1cccc(-n2c(=O)n(C3CC3)c(=O)c3c(Nc4ccc(I)cc4F)n(C)c(=O)c(C)c32)c1 [Trametinib] (partner 0.02 µM)", "Assay system": "NCI-H1975", "relative viability": 0.319}
{"Molecule": "C=C1C(=O)O[C@@H](CCCCCCCC)[C@@H]1C(=O)O [C-75] + COc1cccc2cc(-c3nc([C@H]4CC[C@H](C(=O)O)CC4)n4ncnc(N)c34)[nH]c12 [OSI-027] (partner 0.5 µM)", "Assay system": "NCI-H1975", "relative viability": 0.436}

Now look at this entry.
Indicate the recorded relative viability value for this molecule: C=C1C(=O)O[C@@H](CCCCCCCC)[C@@H]1C(=O)O [C-75] + CC(C)C[C@H](NC(=O)[C@H](Cc1ccccc1)NC(=O)c1cnccn1)B(O)O [Bortezomib] (partner 0.002 µM)
0.283

----------
- System: 201T
- Experiment summary: relative viability (nuclei count vs DMSO), 5 days (fraction); higher = more cells survive
- Condition details: first compound 0.5 µM
Result type: relative viability
// return just the number, without any unit appended

{"Molecule": "CC1(C)CCC(c2ccc(Cl)cc2)=C(CN2CCN(c3ccc(C(=O)NS(=O)(=O)c4ccc(N[C@H](CCN5CCOCC5)CSc5ccccc5)c(S(=O)(=O)C(F)(F)F)c4)cc3)CC2)C1 [Navitoclax] + CC(=O)Nc1cccc(-n2c(=O)n(C3CC3)c(=O)c3c(Nc4ccc(I)cc4F)n(C)c(=O)c(C)c32)c1 [Trametinib] (partner 0.02 µM)", "Assay system": "201T", "Readout value": 0.726}

Indicate the recorded relative viability value for this molecule: CC1(C)CCC(c2ccc(Cl)cc2)=C(CN2CCN(c3ccc(C(=O)NS(=O)(=O)c4ccc(N[C@H](CCN5CCOCC5)CSc5ccccc5)c(S(=O)(=O)C(F)(F)F)c4)cc3)CC2)C1 [Navitoclax] + C[C@]1(O)C[C@@H](c2nc(-c3ccc4ccc(-c5ccccc5)nc4c3)c3c(N)nccn32)C1 [Linsitinib] (partner 1 µM)
1.01

Indicate the recorded relative viability value for this molecule: CC1(C)CCC(c2ccc(Cl)cc2)=C(CN2CCN(c3ccc(C(=O)NS(=O)(=O)c4ccc(N[C@H](CCN5CCOCC5)CSc5ccccc5)c(S(=O)(=O)C(F)(F)F)c4)cc3)CC2)C1 [Navitoclax] + CC(=O)c1c(C)c2cnc(Nc3ccc(N4CCNCC4)cn3)nc2n(C2CCCC2)c1=O [Palbociclib] (partner 0.5 µM)
0.355

Indicate the recorded relative viability value for this molecule: CC1(C)CCC(c2ccc(Cl)cc2)=C(CN2CCN(c3ccc(C(=O)NS(=O)(=O)c4ccc(N[C@H](CCN5CCOCC5)CSc5ccccc5)c(S(=O)(=O)C(F)(F)F)c4)cc3)CC2)C1 [Navitoclax] + C[C@@H](Oc1cc(-c2cnn(C3CCNCC3)c2)cnc1N)c1c(Cl)ccc(F)c1Cl [Crizotinib] (partner 1 µM)
1.03

Indicate the recorded relative viability value for this molecule: CC1(C)CCC(c2ccc(Cl)cc2)=C(CN2CCN(c3ccc(C(=O)NS(=O)(=O)c4ccc(N[C@H](CCN5CCOCC5)CSc5ccccc5)c(S(=O)(=O)C(F)(F)F)c4)cc3)CC2)C1 [Navitoclax] + CS(=O)(=O)N1CCN(Cc2cc3nc(-c4cccc5[nH]ncc45)nc(N4CCOCC4)c3s2)CC1 [Pictilisib] (partner 1 µM)
0.707
